Examples of molecules with documented IC50 follow.
# MEASURED_TARGET: human Nav1.8 (Homo sapiens)
# Construct: expressed in transfected cells; host or cells: HEK293 (HEK293-Nav1.8)
# PROTOCOL_NOTES: Nav1.8 sodium channels assay, QPatch 48 HTX electrophysiology in HEK293-Nav1.8 cells
# Format: cell-based
# CONDITION_DETAILS: at least one set of experimental runs; read-out: average pIC50 value against Nav1.8 (converted)
REPORTED_PROPERTY: IC50

[[record]]
structure_notation = "CCOc1cc(F)ccc1N1CN(c2ccc(=O)[nH]c2C)C(=O)c2cc(Cl)ccc21"
result = "126 to 631 nM"

[[record]]
structure_notation = "Cc1cc(=O)[nH]cc1N1CN(c2ccc(F)cc2C)c2ccc(C(F)(F)F)cc2C1=O"
result = "126 to 631 nM"

[[record]]
structure_notation = "Cc1cc(OC(F)(F)F)ccc1N1CN(c2ccc(=O)[nH]c2C)C(=O)c2cc(Cl)c(C#N)nc21"
result = "≤ 100 nM"

[[record]]
structure_notation = "Cc1cc(F)ccc1N1CN(c2ccc(=O)[nH]c2)C(=O)c2cc(C(F)(F)F)ccc21"
result = "126 to 631 nM"


###

# MEASURED_TARGET: human Nav1.8 (Homo sapiens)
# Construct: expressed in transfected cells; host or cells: HEK293 (HEK293-Nav1.8)
# PROTOCOL_NOTES: Nav1.8 sodium channels assay, QPatch 48 HTX electrophysiology in HEK293-Nav1.8 cells
# Assay type: cell-based
# CONDITION_DETAILS: Table 1; HEK293-Nav1.8, QPatch 48 HTX, half inactivation state voltage protocol (V1/2); single run or average of two or more runs; read-out: Nav1.8 pIC50 (converted)
REPORTED_PROPERTY: IC50 (nM)

[[record]]
molecule = "Cc1cc(F)ccc1N1CN(c2ccc(=O)[nH]c2C)C(=O)c2ccccc21 [drawing 297]"
unit_abbrev = "nM"
number = 63.1

[[record]]
molecule = "Cc1cc(F)ccc1N1CN(c2ccc(=O)[nH]c2C)C(=O)c2ccc(C#N)cc21 [drawing 299]"
unit_abbrev = "nM"
number = 25.1

[[record]]
molecule = "O=C1c2ccc(C(F)(F)F)cc2N(C2CCCCC2)CN1c1ccc(=O)[nH]c1 [drawing 263]"
unit_abbrev = "nM"
number = 6310

[[record]]
molecule = "Cc1[nH]c(=O)ccc1N1CN(c2ccc(F)cc2)c2cc(C(F)(F)F)ccc2C1=O [drawing 285]"
unit_abbrev = "nM"
number = 126

[[record]]
molecule = "Cc1cc(F)ccc1N1CN(c2ccc(=O)[nH]c2C)C(=O)c2cc(C(F)(F)F)ccc21 [drawing 286]"
unit_abbrev = "nM"
number = 15.8

[[record]]
molecule = "Cc1cc(F)ccc1N1CN(c2cnc(=O)[nH]c2)C(=O)c2ccc(C(F)(F)F)cc21 [drawing 306]"
unit_abbrev = "nM"
number = 501

[[record]]
molecule = "Cc1cc(F)ccc1N1CN(c2ccc(=O)[nH]c2)C(=O)c2ccc(C(F)(F)F)cc21 [drawing 261]"
unit_abbrev = "nM"
number = 126

[[record]]
molecule = "Cc1cc(F)ccc1N1CN(c2ncc(=O)[nH]c2C)C(=O)c2ccc(C(F)(F)F)cc21 [drawing 308]"
unit_abbrev = "nM"
number = 398


###

# MEASURED_TARGET: human Nav1.8 (Homo sapiens, UniProt Q9Y5Y9)
# Construct: expressed in transfected cells; host or cells: HEK293 (HEK293-Nav1.8)
# Sequence (Q9Y5Y9 whole entry): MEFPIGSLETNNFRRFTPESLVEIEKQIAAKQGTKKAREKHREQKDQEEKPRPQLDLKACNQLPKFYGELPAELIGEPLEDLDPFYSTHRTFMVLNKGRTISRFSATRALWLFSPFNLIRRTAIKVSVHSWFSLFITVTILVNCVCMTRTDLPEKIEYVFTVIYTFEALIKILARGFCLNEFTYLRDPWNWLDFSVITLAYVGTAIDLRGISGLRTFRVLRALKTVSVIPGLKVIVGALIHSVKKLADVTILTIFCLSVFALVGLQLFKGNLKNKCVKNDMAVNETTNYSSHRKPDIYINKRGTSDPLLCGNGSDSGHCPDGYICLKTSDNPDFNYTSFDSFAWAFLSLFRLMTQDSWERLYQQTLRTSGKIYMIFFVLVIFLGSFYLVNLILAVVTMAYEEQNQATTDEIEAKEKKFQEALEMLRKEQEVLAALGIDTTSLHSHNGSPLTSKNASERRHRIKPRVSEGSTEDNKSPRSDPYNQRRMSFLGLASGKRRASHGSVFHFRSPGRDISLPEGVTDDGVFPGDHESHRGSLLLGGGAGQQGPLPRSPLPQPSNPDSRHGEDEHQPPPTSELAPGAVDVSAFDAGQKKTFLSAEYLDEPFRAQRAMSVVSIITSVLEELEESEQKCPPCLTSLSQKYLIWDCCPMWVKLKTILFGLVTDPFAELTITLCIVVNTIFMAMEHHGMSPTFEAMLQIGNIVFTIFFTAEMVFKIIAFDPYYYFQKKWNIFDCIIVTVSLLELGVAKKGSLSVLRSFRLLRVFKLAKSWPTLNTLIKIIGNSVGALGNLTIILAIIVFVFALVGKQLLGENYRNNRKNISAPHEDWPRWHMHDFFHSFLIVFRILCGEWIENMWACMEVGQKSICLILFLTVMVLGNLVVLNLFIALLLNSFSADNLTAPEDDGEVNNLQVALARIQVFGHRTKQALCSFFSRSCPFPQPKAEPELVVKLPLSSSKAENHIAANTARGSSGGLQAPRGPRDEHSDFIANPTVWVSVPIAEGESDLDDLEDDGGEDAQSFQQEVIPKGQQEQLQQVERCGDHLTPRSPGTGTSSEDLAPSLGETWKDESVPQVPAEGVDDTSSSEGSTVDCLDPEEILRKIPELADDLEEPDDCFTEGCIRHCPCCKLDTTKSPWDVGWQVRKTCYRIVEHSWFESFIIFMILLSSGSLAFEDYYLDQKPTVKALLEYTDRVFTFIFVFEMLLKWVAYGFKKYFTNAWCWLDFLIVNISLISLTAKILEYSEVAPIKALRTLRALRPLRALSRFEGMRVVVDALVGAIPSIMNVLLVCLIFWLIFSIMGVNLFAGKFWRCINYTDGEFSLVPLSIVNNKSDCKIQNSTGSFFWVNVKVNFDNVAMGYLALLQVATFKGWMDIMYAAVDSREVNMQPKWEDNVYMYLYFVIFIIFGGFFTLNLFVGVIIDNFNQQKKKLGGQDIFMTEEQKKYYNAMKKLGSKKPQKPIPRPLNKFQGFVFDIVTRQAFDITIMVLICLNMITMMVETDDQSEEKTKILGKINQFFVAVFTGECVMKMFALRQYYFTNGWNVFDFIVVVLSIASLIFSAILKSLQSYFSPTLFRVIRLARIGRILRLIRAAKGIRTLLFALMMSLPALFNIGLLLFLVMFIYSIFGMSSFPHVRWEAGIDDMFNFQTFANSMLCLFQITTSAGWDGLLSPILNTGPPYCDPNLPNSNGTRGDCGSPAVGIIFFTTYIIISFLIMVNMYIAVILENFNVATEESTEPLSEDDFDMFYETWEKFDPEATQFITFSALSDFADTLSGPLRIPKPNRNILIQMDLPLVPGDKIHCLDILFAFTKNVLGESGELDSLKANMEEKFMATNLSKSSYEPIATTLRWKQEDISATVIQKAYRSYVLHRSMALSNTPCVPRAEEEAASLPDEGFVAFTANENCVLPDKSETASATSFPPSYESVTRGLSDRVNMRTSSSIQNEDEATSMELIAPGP
# Sequence (Q07699 19-218 partner): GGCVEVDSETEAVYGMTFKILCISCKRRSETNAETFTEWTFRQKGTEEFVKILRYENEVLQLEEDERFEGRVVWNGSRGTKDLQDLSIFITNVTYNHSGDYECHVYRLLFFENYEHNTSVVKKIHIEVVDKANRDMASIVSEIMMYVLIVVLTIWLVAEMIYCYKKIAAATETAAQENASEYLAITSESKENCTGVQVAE
# PROTOCOL_NOTES: Nav1.8 sodium channels assay, QPatch 48 HTX electrophysiology in HEK293-Nav1.8 cells
# Format: cell-based
# CONDITION_DETAILS: at least one set of experimental runs; read-out: average pIC50 value against Nav1.8 (converted)
Here, each record is paired with measured IC50 data.
REPORTED_PROPERTY: IC50

[[record]]
molecule = "Cc1cc(F)ccc1N1CN(c2ccc(=O)[nH]c2C#N)C(=O)c2ccc(C(F)(F)F)cc21 [Example 154]"
measured_target = "human Nav1.8 (Homo sapiens, UniProt Q9Y5Y9)"
reported_property = "IC50"
result = "126 to 631 nM"

[[record]]
molecule = "Cc1cc(F)ccc1N1CN(c2ccc(=O)[nH]c2C2CC2)C(=O)c2ccc(C(F)(F)F)cc21 [Example 90]"
measured_target = "human Nav1.8 (Homo sapiens, UniProt Q9Y5Y9)"
reported_property = "IC50"
result = "≤ 100 nM"

[[record]]
molecule = "Cc1[nH]c(=O)ccc1N1CN(c2ccc(F)cc2C(C)(C)C)c2ccc(Cl)cc2C1=O (single isomer, unassigned) [Example 293]"
measured_target = "human Nav1.8 (Homo sapiens, UniProt Q9Y5Y9)"
reported_property = "IC50"
result = "126 to 631 nM"

[[record]]
molecule = "Cc1cc(=O)[nH]c(C)c1N1CN(c2ccc(F)cc2C(C)C)c2ccc(Cl)cc2C1=O (single isomer, unassigned) [Example 292]"
measured_target = "human Nav1.8 (Homo sapiens, UniProt Q9Y5Y9)"
reported_property = "IC50"
result = "126 to 631 nM"

[[record]]
molecule = "Cc1cc(F)ccc1N1CN(c2ccc(=O)[nH]c2C)C(=O)c2cc(F)c(F)cc21 [Example 158]"
measured_target = "human Nav1.8 (Homo sapiens, UniProt Q9Y5Y9)"
reported_property = "IC50"
result = "≤ 100 nM"

[[record]]
molecule = "Cc1cc(F)ccc1N1CN(c2ccc(=O)[nH]c2C)C(=O)c2c1ccc(C(F)(F)F)c2F [Example 108]"
measured_target = "human Nav1.8 (Homo sapiens, UniProt Q9Y5Y9)"
reported_property = "IC50"
result = "≤ 100 nM"

[[record]]
molecule = "COc1ccc(N2CN(c3ccc(F)cc3C)c3cc(C(F)(F)F)ccc3C2=O)cn1 [Example 10]"
measured_target = "human Nav1.8 (Homo sapiens, UniProt Q9Y5Y9)"
reported_property = "IC50"
result = "794 to 7940 nM"


###

# MEASURED_TARGET: human Nav1.8 (Homo sapiens)
# Construct: expressed in transfected cells; host or cells: HEK293 (HEK293-Nav1.8)
# PROTOCOL_NOTES: Nav1.8 sodium channels assay, QPatch 48 HTX electrophysiology in HEK293-Nav1.8 cells
# Format: cell-based
# CONDITION_DETAILS: at least one set of experimental runs; read-out: average pIC50 value against Nav1.8 (converted)
Reported IC50 values follow for various compounds
REPORTED_PROPERTY: IC50

[[record]]
structure_notation = "Cc1cc(F)ccc1N1CN(c2ccc(=O)[nH]c2)C(=O)c2c1cccc2C(F)(F)F"
measured_target = "human Nav1.8 (Homo sapiens)"
result = "794 to 7940 nM"

[[record]]
structure_notation = "CCc1cc(F)ccc1N1CN(c2ccncc2C)C(=O)c2cc(Cl)c(F)cc21"
measured_target = "human Nav1.8 (Homo sapiens)"
result = "126 to 631 nM"

[[record]]
structure_notation = "CCc1[nH]c(=O)ccc1N1CN(c2ccc(F)cc2C(C)C)c2cc(C(F)(F)F)ccc2C1=O"
measured_target = "human Nav1.8 (Homo sapiens)"
result = "≤ 100 nM"

[[record]]
structure_notation = "Cc1cc(F)ccc1N1CN(c2ccc(=O)[nH]c2C)C(=O)c2c1cc(C#N)c(Cl)c2F"
measured_target = "human Nav1.8 (Homo sapiens)"
result = "≤ 100 nM"


###

Quick reference for IC50 among some compounds
# MEASURED_TARGET: human Nav1.8 (Homo sapiens, UniProt Q9Y5Y9)
# Construct: expressed in transfected cells; host or cells: HEK293 (HEK293-Nav1.8)
# PROTOCOL_NOTES: Nav1.8 sodium channels assay, QPatch 48 HTX electrophysiology in HEK293-Nav1.8 cells
# Type: cell-based
# CONDITION_DETAILS: at least one set of experimental runs; read-out: average pIC50 value against Nav1.8 (converted)
REPORTED_PROPERTY: IC50

[[record]]
structure_notation = "Cc1cc(F)ccc1N1CN(c2ccc(=O)[nH]c2C)C(=O)c2cc(F)c(C)nc21"
result = "126 to 631 nM"

[[record]]
structure_notation = "Cc1ccc2c(n1)N(c1ccc(F)cc1C)CN(c1ccc(=O)[nH]c1C)C2=O"
result = "126 to 631 nM"

[[record]]
structure_notation = "Cc1cc(F)ccc1N1CN(c2ccc(=O)[nH]c2C)C(=O)c2ccc(OC(F)F)nc21"
result = "126 to 631 nM"


###

# MEASURED_TARGET: human Nav1.8 (Homo sapiens, UniProt Q9Y5Y9)
# Construct: expressed in transfected cells; host or cells: HEK293 (HEK293-Nav1.8)
# PROTOCOL_NOTES: Nav1.8 sodium channels assay, QPatch 48 HTX electrophysiology in HEK293-Nav1.8 cells
# Format: cell-based
# CONDITION_DETAILS: at least one set of experimental runs; read-out: average pIC50 value against Nav1.8 (converted)
REPORTED_PROPERTY: IC50

[[record]]
structure_notation = "Cc1[nH]c(=O)ccc1N1CN(c2ccc(F)cc2C2CC2)c2ccccc2C1=O"
result = "126 to 631 nM"

[[record]]
structure_notation = "Cc1cc(F)ccc1N1CN(c2ccc(=O)[nH]c2C)C(=O)c2cc(Cl)cnc21"
result = "126 to 631 nM"

[[record]]
structure_notation = "O=C1c2ccc(C(F)(F)F)cc2N(c2ccc(F)cc2OCCO)CN1c1ccc(=O)[nH]c1"
result = "794 to 7940 nM"

[[record]]
structure_notation = "Cc1[nH]c(=O)ccc1N1CN(c2cccc(C#N)c2C)c2ccc(Cl)cc2C1=O"
result = "126 to 631 nM"

